- EXPERIMENTAL PROTOCOL: clinical
- COND: human, plasma, po, 10 mg
MEASUREMENT LABEL: Cmax (nM)
Numbers only, in nM.

Asked: Look up Cmax for this compound: CC#CCn1c(N2CCC[C@@H](N)C2)nc2c1c(=O)n(Cc1nc(C)c3ccccc3n1)c(=O)n2C [BI 1356]
Given back: 9.69

----------
- EXPERIMENTAL PROTOCOL: clinical
- COND: human, plasma, po, 2.5 mg
MEASUREMENT LABEL: Cmax (nM)
One number for each entry, in nM.

Asked: Look up Cmax for this molecule: `CC#CCn1c(N2CCC[C@@H](N)C2)nc2c1c(=O)n(Cc1nc(C)c3ccccc3n1)c(=O)n2C`
Given back: 5.25
